# ASSAY: Determination of half life in PBS: cleavage of promoieties from capped model peptides
# Type: physicochemical
# CONDITION_SUMMARY: PBS, 37° C., 1 mg/mL, RP-HPLC; read-out: t 1/2 (h), cleavage of promoiety linked to N terminus of model peptide X-GIVEQAA (converted)
Numbered stars: 1 amine (or outer) side, 2 acyl side, 3 side chain; on linkers, the order of the positions; unused ones are H or OH. Square brackets hold non-standard residues; d marks the D form. Peptide text beside a SMILES is read from it. * marks the point of attachment. X13 = CCCCCCCCCC(=O)Nc1ccc2c(c1)CN([*:1])[C@H](C(=O)[*:2])C2; X9 = NCCS(=O)(=O)c1ccc(C(=O)*)c(CN)c1; X12 = Cc1cc(N)cc(C(=O)*)c1CN; X5 = Cc1cc(CN)cc(CN)c1C(=O)*
READOUT: half-life at 1 mg/mL
Answer as a quantity: numeral, then unit.

Some entries whose results are on file:
[
  {
    "COMPOUND": "CCCCCCCCCC(=O)Nc1ccc2c(c1)CN(C(=O)[C@H](C)N)[C@H](C(=O)NCC(=O)N[C@H](C(=O)N[C@H](C(=O)N[C@@H](CCC(=O)O)C(=O)N[C@@H](CCC(N)=O)C(=O)N[C@@H](C)C(=O)N[C@@H](C)C(=O)O)C(C)C)[C@@H](C)CC)C2 (H-A[X13]GIVEQAA-OH)",
    "half-life at 1 mg/mL": "38.9 h"
  },
  {
    "COMPOUND": "CC[C@H](C)[C@H](NC(=O)CNC(=O)c1c(C)cc(CN)cc1CN)C(=O)N[C@H](C(=O)N[C@@H](CCC(=O)O)C(=O)N[C@@H](CCC(N)=O)C(=O)N[C@@H](C)C(=O)N[C@@H](C)C(=O)O)C(C)C (X5-GIVEQAA-OH; N-terminus and C-terminus assumed)",
    "half-life at 1 mg/mL": "300 h"
  },
  {
    "COMPOUND": "CC[C@H](C)[C@H](NC(=O)CNC(=O)c1ccc(S(=O)(=O)CCN)cc1CN)C(=O)N[C@H](C(=O)N[C@@H](CCC(=O)O)C(=O)N[C@@H](CCC(N)=O)C(=O)N[C@@H](C)C(=O)N[C@@H](C)C(=O)O)C(C)C (X9-GIVEQAA-OH)",
    "half-life at 1 mg/mL": "28.1 h"
  }
]

Then there is this compound:
Request: Provide measured half-life at 1 mg/mL value, entry: CC[C@H](C)[C@H](NC(=O)CNC(=O)c1cc(N)cc(C)c1CN)C(=O)N[C@H](C(=O)N[C@@H](CCC(=O)O)C(=O)N[C@@H](CCC(N)=O)C(=O)N[C@@H](C)C(=O)N[C@@H](C)C(=O)O)C(C)C (X12-GIVEQAA-OH; N-terminus and C-terminus assumed)
Result: 85 h

----------
# ASSAY: Determination of half life in PBS: cleavage of promoieties from capped model peptides
# Type: physicochemical
# CONDITION_SUMMARY: PBS (phosphate-buffered saline), pH 4; read-out: t 1/2 (h), cleavage of promoiety linked to N terminus of model peptide X-[…] (converted)
Peptide text beside a SMILES is read from it. * marks the point of attachment. X1 = O=C(O)Cc1ccccc1C(=O)*
READOUT: half-life at 1 mg/mL (h)
Could you give me the number in h? Just the number is fine.

Request: Provide measured half-life at 1 mg/mL value, entry: CC[C@H](C)[C@H](NC(=O)CNC(=O)c1ccccc1CC(=O)O)C(=O)N[C@H](C(=O)N[C@@H](CCC(=O)O)C(=O)N[C@@H](CCC(N)=O)C(=O)N[C@@H](C)C(=O)N[C@@H](C)C(=O)N[C@@H](Cc1ccc(O)cc1)C(=O)O)C(C)C [drawing 171] (X1-GIVEQAAY-OH; C-terminus assumed)
Result: 6.2

----------
# ASSAY: Determination of half life in serum: cleavage of promoieties from capped D-amino acid model peptides
# Assay type: in vitro ADME
# CONDITION_SUMMARY: 100% serum, 37° C.; read-out: t 1/2 (h), cleavage of promoiety linked to N terminus of model peptide X-G-dI-dV-dE-dQ-dA-dA (converted)
Numbered stars: 1 amine (or outer) side, 2 acyl side, 3 side chain; on linkers, the order of the positions; unused ones are H or OH. Square brackets hold non-standard residues; d marks the D form. Peptide text beside a SMILES is read from it. * marks the point of attachment. X10 = C[C@H](N)c1nnnn1[C@@H](CCCCN[*:1])C(=O)[*:2]; Fmoc = O=C(OCC1c2ccccc2-c2ccccc21)*
READOUT: half-life (h)
Could you give me the number in h? Just the number is fine.

Request: Provide measured half-life value, entry: CC[C@@H](C)[C@@H](NC(=O)CNC(=O)[C@H](CCCCNC(=O)OCC1c2ccccc2-c2ccccc21)n1nnnc1[C@H](C)N)C(=O)N[C@@H](C(=O)N[C@H](CCC(=O)O)C(=O)N[C@H](CCC(N)=O)C(=O)N[C@H](C)C(=O)N[C@H](C)C(=O)O)C(C)C (Fmoc-[X10]G[dI][dV][dE][dQ][dA][dA]-OH)
Result: 91.5

----------
Reported log10 half-life at 1 mg/mL values follow for various compounds
# ASSAY: Determination of half life in PBS: cleavage of promoieties from capped model peptides
# Assay type: physicochemical
# CONDITION_SUMMARY: PBS, 37° C., 1 mg/mL, RP-HPLC; read-out: t 1/2 (h), cleavage of promoiety linked to N terminus of model peptide X-[…] (converted)
# Method: Determination Of half Life in PBS Polypeptides GIVEQAA-NH2 (SEQ ID NO: 57) and […] […] The promoiety capped model peptide was dissolved at 1 mg/mL concentration in PBS and the solution was incubated at 37° C. in a water bath. […] RP-HPLC was used to monitor the cleavage reactions and the cleavage rates were quantitatively studied by measuring the peak areas of the promoiety capped and released model peptides. […] The rate of cleavage was determined for the respective promoiety capped model peptides. […]
Numbered stars: 1 amine (or outer) side, 2 acyl side, 3 side chain; on linkers, the order of the positions; unused ones are H or OH. Square brackets hold non-standard residues; d marks the D form. Peptide text beside a SMILES is read from it. * marks the point of attachment. X2 = O=C([C@@H]1Cc2ccccc2N1[*:1])[*:2]; Tic = O=C(O)[C@@H]1Cc2ccccc2CN1; Decanoyl = CCCCCCCCCC(=O)*; X1 = O=C(O)Cc1ccccc1C(=O)*; X4 = NCc1ncccc1C(=O)*
Form field - Quantity: half-life at 1 mg/mL; Unit: h; Scale: log10

Some entries whose results are on file:
[
  {
    "COMPOUND": "CC[C@H](C)[C@H](NC(=O)CNC(=O)c1cccnc1CN)C(=O)N[C@H](C(=O)N[C@@H](CCC(=O)O)C(=O)N[C@@H](CCC(N)=O)C(=O)N[C@@H](C)C(=O)N[C@@H](C)C(=O)N[C@@H](Cc1ccc(O)cc1)C(=O)O)C(C)C (X4-GIVEQAAY-OH; C-terminus assumed)",
    "log10 half-life at 1 mg/mL": 2.66
  },
  {
    "COMPOUND": "CCCCCCCCCC(=O)NCCCC[C@H](N)C(=O)N1c2ccccc2C[C@H]1C(=O)NCC(=O)N[C@H](C(=O)N[C@H](C(=O)N[C@@H](CCC(=O)O)C(=O)N[C@@H](CCC(N)=O)C(=O)N[C@@H](C)C(=O)N[C@@H](C)C(=O)N[C@@H](Cc1ccc(O)cc1)C(=O)O)C(C)C)[C@@H](C)CC [NH2-K(C10)-Indo2CA] (H-K(Decanoyl)[X2]GIVEQAAY-OH; C-terminus assumed)",
    "log10 half-life at 1 mg/mL": 0.78
  }
]

Request: Provide measured log10 half-life at 1 mg/mL value, entry: CC[C@H](C)[C@H](NC(=O)CNC(=O)c1ccccc1CC(=O)O)C(=O)N[C@H](C(=O)N[C@@H](CCC(=O)O)C(=O)N[C@@H](CCC(N)=O)C(=O)N[C@@H](C)C(=O)N[C@@H](C)C(=O)N[C@@H](Cc1ccc(O)cc1)C(=O)O)C(C)C [drawing 173] (X1-GIVEQAAY-OH; C-terminus assumed)
Result: 2.26

Request: Provide measured log10 half-life at 1 mg/mL value, entry: CCCCCCCCCC(=O)NCCCC[C@H](N)C(=O)N1Cc2ccccc2C[C@H]1C(=O)NCC(=O)N[C@H](C(=O)N[C@H](C(=O)N[C@@H](CCC(=O)O)C(=O)N[C@@H](CCC(N)=O)C(=O)N[C@@H](C)C(=O)N[C@@H](C)C(=O)N[C@@H](Cc1ccc(O)cc1)C(=O)O)C(C)C)[C@@H](C)CC [NH2-K(C10)-Tic] (H-K(Decanoyl)[Tic]GIVEQAAY-OH; C-terminus assumed)
Result: 1.67

Request: Provide measured log10 half-life at 1 mg/mL value, entry: CC[C@H](C)[C@H](NC(=O)CNC(=O)[C@@H]1Cc2ccccc2N1C(=O)[C@@H](N)Cc1ccccc1)C(=O)N[C@H](C(=O)N[C@@H](CCC(=O)O)C(=O)N[C@@H](CCC(N)=O)C(=O)N[C@@H](C)C(=O)N[C@@H](C)C(=O)N[C@@H](Cc1ccc(O)cc1)C(=O)O)C(C)C [NH2-Phe-Indo2CA] (H-F[X2]GIVEQAAY-OH; C-terminus assumed)
Result: 0.99

Request: Provide measured log10 half-life at 1 mg/mL value, entry: N[C@@H](CO)c1nncn1[C@@H](CCCCNC(=O)OCC1c2ccccc2-c2ccccc21)C(=O)O
Result: 2.29
